Sourced from ChEMBL document CHEMBL1201862

Measured GI50 by item
# System: IGROV-1
# Assay comment: NCI tumour cell line growth inhibition, 48 h
Calls of active or inactive are those of the source. Cut-off read from the data, not from the text of the source: active = GI50 up to about 1.1 µM and inactive = higher.
Assay metric: GI50

INSERT INTO results (molecule, observed_result) VALUES
  ('COc1cc(C2C(C(=O)O)=C(C)Oc3cc4c(cc32)OCO4)cc(OC)c1OC (configuration not stated)', '58.2 µM (inactive)'),
  ('O=C1c2ccccc2-c2ccc(/N=N/c3c(O)ccc4ccccc34)cc21', '> 100 µM (inactive)'),
  ('OCCCOC(c1ccccc1)(c1ccccc1)c1ccccc1', '> 100 µM (inactive)'),
  ('Cc1nc2ccccc2c(=O)n1NC(=S)Nc1ccccc1', '> 100 µM (inactive)'),
  ('CC12CCC(=O)[C@@]1(C)CCCC2O (some centres not stated)', '> 100 µM (inactive)'),
  ('CCCCCCCCCCCCOP(=O)(O)OP(=O)(O)OCC1OC(n2cc(C)c(=O)[nH]c2=O)CC1O (configuration not stated)', '> 100 µM (inactive)'),
  ('CC(=O)OCC1OC(Nc2ncc(-c3ccc(C)cc3)s2)C(OC(C)=O)C(OC(C)=O)C1OC(C)=O (configuration not stated)', '66.5 µM (inactive)');

----------
# Lookup of reported GI50 keyed by entry
# Tested on: OVCAR-3
# Assay comment: NCI tumour cell line growth inhibition, 48 h
The source made the active and inactive calls. No stated cut-off is given here; in the data, active = GI50 up to about 1.1 µM and inactive = higher.
Assay metric: GI50

INSERT INTO results (compound, measured_target, assay_metric, observed_result) VALUES
  ('O=C(Cc1nc2sc3c(c2c(=O)[nH]1)CCCC3)Nc1ccccc1', 'OVCAR-3', 'GI50', '> 100 µM (inactive)'),
  ('O/N=C1\CCc2cc3c(cc21)CCC3', 'OVCAR-3', 'GI50', '> 100 µM (inactive)'),
  ('COC(=O)C1C(O)C(C)C(O)C(C)(O)/C=C\C=C(C)C(=O)Nc2c(C)c(OC(C)=O)c3c(c2O)C(=O)C(C)=C2OCOC(=C23)C(C)=CC(C)(O)C(O)C(C)C1OC(C)=O (configuration not stated)', 'OVCAR-3', 'GI50', '27.7 µM (inactive)'),
  ('N=C(N)NS(=O)(=O)c1ccc(Nc2c3ccccc3nc3ccc(C(=O)Nc4ccc(S(N)(=O)=O)cc4)cc23)cc1', 'OVCAR-3', 'GI50', '> 100 µM (inactive)'),
  ('CC(C)C(Cl)CCC(C)(Cl)C(=O)CBr (configuration not stated)', 'OVCAR-3', 'GI50', '6.18 µM (inactive)'),
  ('C/C(=N/NS(=O)(=O)c1ccccc1)c1cccc[n+]1[O-]', 'OVCAR-3', 'GI50', '> 100 µM (inactive)'),
  ('CC1(C)SC2C(NC(=O)C(C(=O)O)c3ccccc3)C(=O)N2C1C(=O)O (configuration not stated)', 'OVCAR-3', 'GI50', '> 100 µM (inactive)'),
  ('O=S1(=O)OCCOS(=O)(=O)C1(F)Cc1ccccc1', 'OVCAR-3', 'GI50', '> 100 µM (inactive)'),
  ('CC(C)(C)OC(=O)NCCCCC1NC(=O)[C@@H]2Cc3c([nH]c4ccccc34)C(C3CCCCC3)N2C1=O (some centres not stated)', 'OVCAR-3', 'GI50', '10.6 µM (inactive)'),
  ('COc1ccccc1/C=N/N=C(\N)NO', 'OVCAR-3', 'GI50', '45.1 µM (inactive)'),
  ('O=c1c(-c2ccc3c(c2)OCO3)coc2c3c(ccc12)OCO3', 'OVCAR-3', 'GI50', '28.5 µM (inactive)'),
  ('CCCCCCSc1nc(N)nc2nc[nH]c12', 'OVCAR-3', 'GI50', '40.2 µM (inactive)'),
  ('COc1cccc(SSc2cccc(OC)c2C(=O)O)c1C(=O)O', 'OVCAR-3', 'GI50', '> 100 µM (inactive)'),
  ('C=CCCCn1ccc2ccccc21', 'OVCAR-3', 'GI50', '> 100 µM (inactive)'),
  ('O=C(CNc1ccc2c(=S)c3ccccc3[nH]c2c1)Nc1ccccc1-c1ccccc1NC(=O)CNc1ccc2c(=S)c3ccccc3[nH]c2c1', 'OVCAR-3', 'GI50', '24.8 µM (inactive)'),
  ('CC(C)(O)C1CC(=O)C(C)(C2C(O)CC3(C)C4CC=C5C(CCC(O)C5(C)C)C4(C)C(=O)CC23C)O1 (configuration not stated)', 'OVCAR-3', 'GI50', '> 100 µM (inactive)'),
  ('COc1cc(C(N)=O)cc(NC(=O)/C=C/c2ccccc2)c1OC', 'OVCAR-3', 'GI50', '97.5 µM (inactive)');

----------
Each entry below lists one item and its recorded GI50 value.
# Tested on: ACHN
# Assay comment: NCI tumour cell line growth inhibition, 48 h
Activity calls are given as the source filed them. Cut-off read from the data, not from the text of the source: active = GI50 up to about 1.1 µM and inactive = higher.
Assay metric: GI50

INSERT INTO results (compound, assay_metric, observed_result) VALUES
  ('C=C(C)CC1=C(OCC)C(OC)(OCC)C1=O (centres undefined)', 'GI50', '> 100 µM (inactive)'),
  ('COc1ccc(/C=C/c2nccc3ccccc23)cc1OC', 'GI50', '> 10 µM (inactive)'),
  ('N=C(N)SCCC(=O)CCSC(=N)N', 'GI50', '> 100 µM (inactive)'),
  ('O=c1cc(NNc2cccc(Cl)c2)[nH]c(=O)[nH]1', 'GI50', '38.9 µM (inactive)');

----------
// values below are reported GI50
# System: SNB-19
# Assay comment: NCI tumour cell line growth inhibition, 48 h
Calls of active or inactive are those of the source. No stated cut-off is given here; in the data, active = GI50 up to about 1.1 µM and inactive = higher.
Assay metric: GI50

INSERT INTO measurements (compound, observed_result) VALUES
  ('CN(C1=NCCO1)c1cccc2ccccc12', '> 10 µM (inactive)'),
  ('O=C(O)C(F)(F)C(F)(F)C(F)(F)C(F)(F)C(F)(F)C(F)(F)C(F)(F)C(F)(F)F', '39.6 µM (inactive)'),
  ('CC(C)(C)OC(=O)NC1CC=CCC1NC(=O)OC(C)(C)C (centres undefined)', '> 100 µM (inactive)'),
  ('O=CN/C=C/c1cc(O)ccc1O', '> 66.7 µM (inactive)'),
  ('NCCCCC(=O)c1cccnc1', '> 100 µM (inactive)'),
  ('COC(=O)C12C3C4(C(=O)OC)C1C1(C(=O)OC)C2C3(C(=O)OC)C41C(=O)N(C(C)C)C(C)C (centres undefined)', '> 100 µM (inactive)'),
  ('CC(C)(O)C1CC(=O)C(C)(C2C(O)CC3(C)C4CC=C5C(CCC(O)C5(C)C)C4(C)C(=O)CC23C)O1 (centres undefined)', '> 100 µM (inactive)'),
  ('CC(C)C1CSC2N1C(=O)C2(OCc1ccccc1)C1CC1 (centres undefined)', '> 100 µM (inactive)'),
  ('Clc1ccccc1C1SCc2nc3ccccc3n21 (centres undefined)', '12.4 µM (inactive)'),
  ('CC(C)=CC(=O)C1c2cccc(O)c2C(=O)c2c(O)cc(C)cc21 (centres undefined)', '2.12 µM (inactive)'),
  ('Cc1ccc(N(C)S(=O)(=O)c2ccc([N+](=O)[O-])cc2)cc1', '> 100 µM (inactive)'),
  ('CN1C(=O)C(=CNc2ccccc2[N+](=O)[O-])C(=O)N(C)C1=O', '> 100 µM (inactive)'),
  ('CN(CCn1cnc2c1c(=O)n(C)c(=O)n2C)C1CCCCC1', '> 100 µM (inactive)'),
  ('O=C1C2C3C=C4c5ccccc5N(c5ccccc5)C4(C2C(=O)N1Cc1ccccc1)C1C(=O)N(Cc2ccccc2)C(=O)C31 (centres undefined)', '> 100 µM (inactive)');

----------
# Tested on: Malme-3M
# Assay comment: NCI tumour cell line growth inhibition, 48 h
The source made the active and inactive calls. Cut-off read from the data, not from the text of the source: active = GI50 up to about 1.1 µM and inactive = higher.
Assay metric: GI50

INSERT INTO measurements (molecule, observed_result) VALUES
  ('NS(=O)(=O)c1ccc(-c2ccc([As](=O)(O)O)cc2)cc1', '> 100 µM (inactive)'),
  ('Sc1cnnc2ccc(Br)cc12', '24.7 µM (inactive)'),
  ('O=C(CCn1[nH]c(=O)c(Cl)c(Cl)c1=O)NO', '> 100 µM (inactive)'),
  ('COC(=O)c1c(C)c2c(c(C)c1C(=O)OC)-c1c(C)ccc3ccc(C)c-2c13', '> 55.1 µM (inactive)'),
  ('CCN(CC)CCN1C(=O)CC2[C@@H]3CCc4cc(OC)ccc4C3CC[C@]2(C)C1=O (stereo partly specified)', '18.5 µM (inactive)'),
  ('COC(=O)C(=O)OC1(C(C)=O)CC2(c3ccccc3)OC1(c1ccccc1)c1ccccc12 (stereo unspecified)', '19.1 µM (inactive)');

----------
# Tested on: UO-31
# Assay comment: NCI tumour cell line growth inhibition, 48 h
Active and inactive are the calls of the source. Cut-off read from the data, not from the text of the source: active = GI50 up to about 1.1 µM and inactive = higher.
Labels: T = active, F = inactive

INSERT INTO assay_data (compound, class_assignment) VALUES
  ('CC(=O)NC1=C(C)C(=O)c2c(nc3n2CCC3OC(=O)c2ccccc2)C1=N (stereo not drawn)', 'F'),
  ('C=CCN(c1cc(OC)c2[nH]cc(C)c2c1[N+](=O)[O-])S(C)(=O)=O', 'F'),
  ('CO[C@H]1C[C@H](O[C@H]2CC[C@]3(C=O)[C@H]4CC[C@]5(C)[C@@H](C6=CC(=O)OC6)CC[C@]5(O)[C@@H]4CC[C@]3(O)C2)O[C@H](C)[C@H]1O[C@@H]1O[C@H](CO)[C@@H](O)[C@H](O)[C@H]1O', 'T'),
  ('CC(=O)OCC1OC(Oc2cc(C)c(O)cc2C/C=C(\C)CC/C=C(\C)CC(=O)CC(C)C)C(O)C(OC(C)=O)C1OC(C)=O (stereo not drawn)', 'F'),
  ('O=C(N/N=C1\C(=O)Nc2c(Cl)cc(Cl)cc21)C(=O)Nc1cccc(C(F)(F)F)c1', 'F'),
  ('Nc1ncnc2c1nc(Cl)n2C1OC2COP(=O)(O)OC2C1O (stereo not drawn)', 'F'),
  ('O=C1COC(c2ccccc2O)=NN1CCCN1CCCC1', 'F'),
  ('COc1cc(/C=N/NC(=O)c2c(Cl)c(Cl)c(Cl)c(Cl)c2-c2nc3ccccc3[nH]2)ccc1O', 'F'),
  ('CCCCCCCCCCCCCC(=O)OCC(CCS(=O)(=O)O[C@H]1CC[C@@]2(C)C(=CC[C@@H]3C2CC[C@]2(C)C(=O)CCC32)C1)OC(=O)CCCCCCCCCCCCC (stereo partly drawn)', 'F'),
  ('Cc1cc(O)c2c(c1O)C(=O)C13C(=C(O)C4C(O)C1C1C(O)C3C(O)=C3C(=O)c5c(O)cc(C)c(O)c5C(=O)C341)C2=O (stereo not drawn)', 'T'),
  ('COC(=O)c1ccccc1NC(=O)/C(=N\NC(C)(C)C)C(C#N)c1nc(-c2ccc([N+](=O)[O-])cc2)cs1 (stereo not drawn)', 'F'),
  ('S=C1N(/N=C/c2c3ccccc3cc3ccccc23)C(=N\c2ccccc2)/C(=N/c2ccccc2)N1c1ccccc1', 'F'),
  ('CCCCCCCCOCC(O)CO (stereo not drawn)', 'F'),
  ('COC(=O)C(C(=O)C(=O)NC1=C(Cl)C(=O)c2ccccc2C1=O)c1csc(-n2nc(-c3ccccc3)cc2-c2ccccc2)n1 (stereo not drawn)', 'F'),
  ('Cc1cc(C)c2c(=O)n(CC(O)CN(Cc3ccccc3)CC(O)Cn3sc4nc(C)cc(C)c4c3=O)sc2n1 (stereo not drawn)', 'F'),
  ('FC(F)=C(c1ccc(-c2ccc(Cl)cc2)cc1)C(F)(F)F', 'F'),
  ('CC(=O)C1=C(C)N2C(=NC3=C(CCc4ccccc43)C2c2cccc(Br)c2)S1 (stereo not drawn)', 'F'),
  ('O=C(c1ccccc1)c1ccc(N2C(=O)/C(=C/Cc3ccco3)N=C2c2ccccc2)c(N2C(=O)/C(=C/Cc3ccco3)N=C2c2ccccc2)c1', 'F'),
  ('COc1cc([C@@H]2c3cc4c(cc3[C@H](OC3OC5COC(C(C)C)OC5C(O)C3O)C3COC(=O)[C@@H]32)OCO4)cc(OC)c1O (stereo partly drawn)', 'F'),
  ('COc1ccc(/C=C2\C[C@H]3[C@@H]4CCC5=C/C(=N/O)CC[C@]5(C)[C@H]4CC[C@]3(C)\C2=N\O)cc1OC', 'F'),
  ('NCCCCC(=O)c1cccnc1', 'F'),
  ('COc1cc2c(cc1OC)-c1cc3cc(OC)c(OC)cc3c(=O)n1CC2', 'F'),
  ('COC(=O)c1c2c(cc3c1CC1(C3)Cc3ccc4c(c3C1=O)CCC4)CCC2 (stereo not drawn)', 'F');
